Hey, just so you know, these numbers are from PubChem BioAssay (NCI).

I'd be grateful if you could share measured log10(TGI) for these entries.
tested on: HOP-92 NSCLC; test: NCI tumour cell line growth inhibition, 48 h
The common logarithm of TGI in µM is what is listed.

[in] Data request, read-out log10(TGI), for COc1ccc(C2C(C=O)C(N3CCN(C)CC3)=Nc3nc4ccccc4n32)cc1 (stereo not given)
[out] 1.39

[in] Data request, read-out log10(TGI), for CN1CCc2cc(N)cc3c2C1Cc1ccc2c(c1-3)OCO2 (stereo not given)
[out] 1.83

[in] Data request, read-out log10(TGI), for `CC(=O)[O][Bi]([c]1ccccc1)[c]1ccccc1`
[out] 0.63

[in] Data request, read-out log10(TGI), for `Cc1cc(N(CCOS(C)(=O)=O)CCOS(C)(=O)=O)ccc1C=Nc1ccc(-c2csc(-c3ccc(Br)cc3)n2)cc1`
[out] 1.58

[in] Data request, read-out log10(TGI), for COc1cc2c(cc1OCCCN1CCN(c3ncnc4ccccc34)CC1)N=CC1CCCN1C2=O (stereo not given)
[out] -1.28

[in] Data request, read-out log10(TGI), for `c1ccc2c(CNCCCCCCCCCCCCNCc3cccc4ccccc34)cccc2c1`
[out] 0.56

[in] Data request, read-out log10(TGI), for `COc1ccc(N=CN(C)C)c(C)c1`
[out] 1.56

[in] Data request, read-out log10(TGI), for `C[C@@H]1OCC2(CCN(c3cnc(Sc4ccnc(N)c4Cl)c(N)n3)CC2)[C@@H]1N`
[out] -0.10

[in] Data request, read-out log10(TGI), for `CCN(CC)C(=S)SS(=O)(=O)c1ccc(NC(C)=O)cc1`
[out] 1.71

[in] Data request, read-out log10(TGI), for `Nc1nc(-c2ccc(Cl)cc2)cc(-c2ccccc2)c1-c1nc2ccccc2o1`
[out] 0.79

[in] Data request, read-out log10(TGI), for COc1ccc(C2C3=C(COC3=O)Oc3cc4c(cc32)OCO4)cc1 (stereo not given)
[out] 1.83

[in] Data request, read-out log10(TGI), for CC(C)C1COC(c2ccc3ccccc3c2-c2c(O[Si](C)(C)C(C)(C)C)ccc3ccccc23)=N1 (stereo not given)
[out] 1.42

[in] Data request, read-out log10(TGI), for `c1ccc2c3c(ccc2c1)-c1c(ccc2c(NCCCCN4CCCCC4)cccc12)C3`
[out] 0.89

[in] Data request, read-out log10(TGI), for COc1cc2c3c(n(CCCN4CCCC(O)C4)c(=O)c2cc1OC)-c1cc2c(cc1C3=O)OCO2 (stereo not given)
[out] -0.05
